# Tested on: VERO cells
# Assay procedure: Cell growth inhibition bioassay (sulforhodamine B)
# Format: cell-based, African Green Monkey
# Experimental context: Chlorocebus sabaeus, Vero; 48 h, SRB; read-out: GI50 in indicated cell line: VERO
Mark Yes for GI50 under 7 µg/mL, No if at or over.

Query: Problem: For the compound COc1ccc(/C=N\Nc2ncnc3sc4c(c23)CCCC4)c(OC)c1 , is GI50 under 7 µg/mL?
Response: No

Query: Input COc1cc(/C=N\Nc2ncnc3sc4c(c23)CCCC4)cc(OC)c1OC ; condition: GI50 strictly below 7 µg/mL. Does it hold?
Response: No

Query: A record lists Clc1ccc(/C=N\Nc2ncnc3sc4c(c23)CCCC4)cc1 . Is its GI50 below 7 µg/mL?
Response: Yes

Query: Dear reviewer, please state whether COc1cccc(/C=N\Nc2ncnc3sc4c(c23)CCCC4)c1 has GI50 strictly beneath 7 µg/mL.
Response: Yes

Query: # strict comparison: is reported GI50 < 7 µg/mL? input = COc1cc(/C=N\Nc2ncnc3sc4c(c23)CCCC4)cc(OC)c1O
Response: No

Query: Determine if C(=N/Nc1ncnc2sc3c(c12)CCCC3)/c1ccccc1 shows GI50 strictly lower than 7 µg/mL.
Response: Yes

Query: Given the entry CC(C)(C)c1ccc(/C=N\Nc2ncnc3sc4c(c23)CCCC4)cc1 , would its reported GI50 be below 7 µg/mL?
Response: Yes

Query: Dear reviewer, please state whether C(=N/Nc1ncnc2sc3c(c12)CCCC3)/c1ccc2c(c1)OCO2 has GI50 strictly beneath 7 µg/mL.
Response: No

Query: I'd appreciate it if you could check whether FC(F)(F)c1ccc(/C=N\Nc2ncnc3sc4c(c23)CCCC4)cc1 has GI50 smaller than 7 µg/mL.
Response: Yes

Query: # strict comparison: is reported GI50 < 7 µg/mL? input = O=[N+]([O-])c1ccc(/C=N\Nc2ncnc3sc4c(c23)CCCC4)cc1
Response: No

Query: A record lists C(=N/Nc1ncnc2sc3c(c12)CCCC3)/c1cccc2ccccc12 . Is its GI50 below 7 µg/mL?
Response: Yes

Query: Please check: GI50 for CCc1ccc(/C=N\Nc2ncnc3sc4c(c23)CCCC4)cc1 , strictly under 7 µg/mL or not?
Response: Yes

Query: For this compound, is GI50 lower than 7 µg/mL? C(=N/Nc1ncnc2sc3c(c12)CCCC3)/c1ccc[nH]1
Response: Yes

Query: Could you please tell me whether GI50 recorded for C(=N/Nc1ncnc2sc3c(c12)CCCC3)/c1ccco1 is less than 7 µg/mL?
Response: Yes

Query: GI50 under 7 µg/mL? Item: C(=N/Nc1ncnc2sc3c(c12)CCCC3)/c1ccccn1
Response: Yes

Query: GI50 under 7 µg/mL? Item: C/C(=N/Nc1ncnc2sc3c(c12)CCCC3)c1ccccc1
Response: No

Query: Regarding CCC(CC)=NNc1ncnc2sc3c(c12)CCCC3 , kindly confirm whether its GI50 is beneath 7 µg/mL.
Response: No
